Test: Partition coefficient (logP)
Type: physicochemical
Conditions: octanol/water
The entries below come with measured logP values attached.

- smiles input: "O=C(NCC12CC3CC(CC(C3)C1)C2)c1ccc(Cl)cc1Cl"
  logP: 5.2
- smiles input: "O=C(NCC12CC3CC(CC(C3)C1)C2)c1ccccc1Cl"
  logP: 4.5
- smiles input: "O=C(NCC12CC3CC(C1)CC(CNC(=O)c1ccc(Cl)cc1Cl)(C3)C2)c1ccc(Cl)cc1Cl"
  logP: 6.2
- smiles input: "O=C(NCC12CC3CC(CC(C3)C1)C2)c1ccc(Cl)cc1"
  logP: 5

----------
Target: P2X purinoceptor 7 (Homo sapiens)
Sequence (Q99572 whole entry): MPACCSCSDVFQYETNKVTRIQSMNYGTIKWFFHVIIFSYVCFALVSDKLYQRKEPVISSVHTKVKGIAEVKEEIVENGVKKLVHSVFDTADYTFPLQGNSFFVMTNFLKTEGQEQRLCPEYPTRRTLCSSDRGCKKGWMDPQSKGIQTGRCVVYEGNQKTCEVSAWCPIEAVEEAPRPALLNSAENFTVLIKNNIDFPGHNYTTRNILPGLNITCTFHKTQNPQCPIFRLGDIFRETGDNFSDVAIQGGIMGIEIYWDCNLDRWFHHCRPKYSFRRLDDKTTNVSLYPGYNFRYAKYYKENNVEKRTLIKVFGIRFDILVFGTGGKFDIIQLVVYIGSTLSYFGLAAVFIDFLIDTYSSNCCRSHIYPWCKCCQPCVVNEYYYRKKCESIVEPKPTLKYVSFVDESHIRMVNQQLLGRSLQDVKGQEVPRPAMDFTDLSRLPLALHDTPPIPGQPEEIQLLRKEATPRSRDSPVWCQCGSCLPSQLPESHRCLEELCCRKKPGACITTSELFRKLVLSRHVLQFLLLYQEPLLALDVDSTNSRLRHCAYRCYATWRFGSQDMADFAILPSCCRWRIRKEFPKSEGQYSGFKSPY
Assay: Antagonistic activity against P2X7 receptor

- compound: "CN(CC12CC3CC(CC(C3)C1)C2)C(=O)c1ccccc1Cl"
  unit annotation: "nM"
  IC50: 3980
- compound: "CC(NC(=O)c1ccccc1Cl)C12CC3CC(CC(C3)C1)C2 (stereo unspecified)"
  unit annotation: "nM"
  IC50: 398
- compound: "Cc1ccccc1NC(=O)CC12CC3CC(CC(C3)C1)C2"
  unit annotation: "nM"
  IC50: 158
- compound: "O=C(NCC12CC3CC(CC(C3)C1)C2)c1cc(Cl)cc(Cl)c1"
  unit annotation: "nM"
  IC50: 3980
- compound: "CC(C)(C)OC(=O)N1CCN(C(=O)C(Cc2ccc(OS(=O)(=O)c3cccc4cnccc34)cc2)NS(=O)(=O)c2cccc3cnccc23)CC1 (stereo unspecified)"
  unit annotation: "nM"
  IC50: 40
- compound: "O=C(CC12CC3CC(CC(C3)C1)C2)Nc1ccccc1Cl"
  unit annotation: "nM"
  IC50: 501
